- TARGET ENTITY: T1, Histidine-tagged human CD40 protein (hCD40-His) (human, UniProt P25942 21-193)
- T1 construct: not shown: histidine tag
- T1 sequence (P25942 21-193 limits assumed): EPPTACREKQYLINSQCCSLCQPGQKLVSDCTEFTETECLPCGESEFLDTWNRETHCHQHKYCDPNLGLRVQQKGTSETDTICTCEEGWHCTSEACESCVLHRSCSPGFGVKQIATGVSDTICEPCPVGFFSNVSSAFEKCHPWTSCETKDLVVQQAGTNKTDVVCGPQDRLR
- PROTOCOL: SPR, Biacore T200; antibody on Protein A chip, hCD40-His injected; 1:1 fit
Catalogue of koff readings, one per entry.
The answer is to be given in s⁻¹; state only the numeric part.

- BINDER: "7F10-H1K4-IgG4 (antibody, V domains shown, Humanized) VH: EVQLVESGGGLVQPGGSLRLSCATSGFTFSDYYMYWVRQAPGKRLEWVAYISYGGDSTFYPDTVRGRFTISRDNAKNSLYLQMNSLRAEDTAVYYCARPAPSAHSYYLDYWGQGTLLTVSS VL: DIQMTQSTSSLSASVGDRVTITCRASQDISNYLNWYQQKPDGTVKLLIYYTSRLHSGLPSRFSGSGSGTDYTLTISSLQQEDIATYYCQQGKTLPFTFASGTKLEIK"
  OUTPUT UNIT: "s⁻¹"
  koff: 0.0321
- BINDER: "7F10-H3K2-IgG4 (antibody, V domains shown, Humanized) VH: EVKLVESGGGLVQPGGSLRLSCATSGFTFSDYYMYWVRQAPEKRLEWVAYISYGGDSTFYPDTVRGRFTISRDNAKNALYLQMSRLKAEDTAVYYCARPAPSAHSYYLDYWGQGTTLTVSS VL: DIQMTQSPSSLSASVGDRVTITCRASQDISNYLNWYQQKPGGAVKLLIYYTSRLHSGLPSRFSGSGSGTDYTFTISSLQPEDIATYYCQQGKTLPFTFASGTKLEIK"
  OUTPUT UNIT: "s⁻¹"
  koff: 0.0482
- BINDER: "4H6-H2K1-IgG4 (antibody, V domains shown, Humanized) VH: EVQLQESGPGLVKPSQTLSLTCTVSGDSVSSGYWNWIRKHPGKKLEWIGFISYSGSTYYTPSLKSRVTISRDTSKNQFSLKLSSVTAADTAVYYCARFRRYDDGVDYWGQGTLVTVSS VL: DIQMTQSPSAMSASVGDRVTITCRASHEISGYLSWFQQKPGGVIKRLINAASTLASGVPSRFSGSRSGTEFTLTISSLQPEDFATYYCLQYSSYPWTFGGGTKLEIK"
  OUTPUT UNIT: "s⁻¹"
  koff: 0.227
- BINDER: "6A7-mHvKv-IgG4 (antibody, V domains shown, Chimeric; also called chimeric anti-hCD40 antibody 6A7-mHvKv-IgG4) VH: QVQLQQPGAELVKPGASVKLSCKASGYTFISYYIYWVKQRPGQGLEWIGGINPRNGGTNFNEKFKSKATLTVDKSSSTAYMQLSSLTSEDSAVYYCTRHGNGVYWGQGTTLTVSS VL: DVVMTQTPLSLPVSLGDQASISCRSSQSLLHSNGNTYLHWYLQKPGQSPNHLIYQVSNRFSGVPDRFSGSGSGTDFTLKISRVEAEDLGVYFCSQTTHVPWTFGGGTKLEIK"
  OUTPUT UNIT: "s⁻¹"
  koff: 0.000259
- BINDER: "6A7-H2K3-IgG4 (antibody, V domains shown, Humanized) VH: QVQLVQSGAEVKKPGASVKVSCKASGYTFISYYIYWVRQAPGQGLEWIGGINPRNGGTNFNEKFKSRATLTVDTSISTAYMELSRLRSEDTAVYYCARHGNGVYWGQGTTVTVSS VL: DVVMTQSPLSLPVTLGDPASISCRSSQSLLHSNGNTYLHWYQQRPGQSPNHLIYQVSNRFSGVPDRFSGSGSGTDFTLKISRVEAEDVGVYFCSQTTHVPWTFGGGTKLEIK"
  OUTPUT UNIT: "s⁻¹"
  koff: 0.00505
- BINDER: "4H6-H3K3-IgG4 (antibody, V domains shown, Humanized) VH: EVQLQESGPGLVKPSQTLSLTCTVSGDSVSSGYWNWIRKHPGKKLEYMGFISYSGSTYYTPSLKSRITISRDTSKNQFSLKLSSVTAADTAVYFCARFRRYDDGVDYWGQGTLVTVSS VL: DIQMTQSPSAMSASVGDRVTITCRASHEISGYLSWIQQKPGGTIKRLINAASTLASGVPSRFSGSRSGTEYTLTISSLQPEDFADYYCLQYSSYPWTFGGGTKLEIK"
  OUTPUT UNIT: "s⁻¹"
  koff: 0.0286
- BINDER: "6A7-H3K2-IgG4 (antibody, V domains shown, Humanized) VH: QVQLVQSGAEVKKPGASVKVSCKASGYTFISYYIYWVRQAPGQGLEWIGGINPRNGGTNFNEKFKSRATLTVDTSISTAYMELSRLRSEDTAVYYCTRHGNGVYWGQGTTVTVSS VL: DVVMTQSPLSLPVTLGQPASISCRSSQSLLHSNGNTYLHWYQQRPGQSPNHLIYQVSNRFSGVPDRFSGSGSGTDFTLKISRVEAEDVGVYFCSQTTHVPWTFGGGTKVEIK"
  OUTPUT UNIT: "s⁻¹"
  koff: 0.000371
- BINDER: "4H6-H4K4-IgG4 (antibody, V domains shown, Humanized) VH: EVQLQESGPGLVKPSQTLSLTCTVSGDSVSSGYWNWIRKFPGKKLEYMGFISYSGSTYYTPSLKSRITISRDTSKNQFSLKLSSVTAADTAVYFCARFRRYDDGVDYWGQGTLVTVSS VL: DIQMTQSPSAMSASVGDRVTLTCRASHEISGYLSWIQQKPGGTIKRLINAASTLASGVPSRFSGSRSGTEYTLTISSLQPEDFADYYCLQYSSYPWTFGGGTKLEIK"
  OUTPUT UNIT: "s⁻¹"
  koff: 0.0278

Input line: Any idea what its koff is? The binder is 4H6-H2K3-IgG4 (antibody, V domains shown, Humanized) VH: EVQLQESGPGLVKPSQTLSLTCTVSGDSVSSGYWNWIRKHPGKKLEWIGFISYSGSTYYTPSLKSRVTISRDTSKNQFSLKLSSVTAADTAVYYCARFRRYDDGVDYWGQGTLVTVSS VL: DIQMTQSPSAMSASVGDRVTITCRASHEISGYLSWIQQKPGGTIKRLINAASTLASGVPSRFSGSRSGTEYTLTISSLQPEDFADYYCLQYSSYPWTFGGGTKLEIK
Output line: 0.0659

Input line: Any idea what its koff is? The binder is 4H6-H2K2-IgG4 (antibody, V domains shown, Humanized) VH: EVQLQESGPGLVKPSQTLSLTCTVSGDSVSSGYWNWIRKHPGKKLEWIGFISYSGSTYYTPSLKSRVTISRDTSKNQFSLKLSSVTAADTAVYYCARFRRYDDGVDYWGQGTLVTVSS VL: DIQMTQSPSAMSASVGDRVTITCRASHEISGYLSWIQQKPGGTIKRLINAASTLASGVPSRFSGSRSGTEFTLTISSLQPEDFADYYCLQYSSYPWTFGGGTKLEIK
Output line: 0.057
